Form field: Anti-CD28 Fab signal in the presence of CD28 (one value per entry).
study system: T1, Anti-CD28 Fab (SEQ ID NOs: 696, 697)
T1 construct: Biotinylated and captured on neutravidin coated plates in the phage ELISA
T1 sequence (VH, as listed by the source, chain 1 of 2): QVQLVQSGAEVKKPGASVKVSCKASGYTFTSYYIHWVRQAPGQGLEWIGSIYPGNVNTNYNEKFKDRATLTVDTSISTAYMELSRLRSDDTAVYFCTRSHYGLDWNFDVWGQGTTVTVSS
T1 sequence (VL, as listed by the source, chain 2 of 2): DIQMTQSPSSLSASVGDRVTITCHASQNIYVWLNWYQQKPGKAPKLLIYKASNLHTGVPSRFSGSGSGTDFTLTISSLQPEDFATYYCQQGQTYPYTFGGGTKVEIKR
assay summary: phage binding ELISA; Fab on plate pre-incubated with CD28 antigen as competitor, anti-M13 HRP detection;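 further: crude clonal phage supernatants screened by ELISA, with comparison wells pre-incubated in blocking buffer only, lacking CD28 antigen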
Where no end group is shown, it is not given here.
reported endpoint: Anti-CD28 Fab signal in the presence of CD28

YCDGHSSEYIVKCL (cysteine pairing not given here; also: displayed on phage by fusion to pIII, pIII and linker sequence not given here, Clonal phage of the Peptide-87 library; not shown: fused to the pIII filament protein of the bacteriophage) [Phage-802] :: 0.06
YCDGHAREYMTKCL (cysteine pairing not given here; also: displayed on phage by fusion to pIII, pIII and linker sequence not given here, Clonal phage of the Peptide-87 library; not shown: fused to the pIII filament protein of the bacteriophage) [Phage-809] :: 0.06
YCDGHLPLYMHKCL (cysteine pairing not given here; also: displayed on phage by fusion to pIII, pIII and linker sequence not given here, Clonal phage of the Peptide-87 library; not shown: fused to the pIII filament protein of the bacteriophage) [Phage-807] :: 0.07
YCEGHAPQYLNKCL (cysteine pairing not given here; also: displayed on phage by fusion to pIII, pIII and linker sequence not given here, Clonal phage of the Peptide-87 library; not shown: fused to the pIII filament protein of the bacteriophage) [Phage-808] :: 0.08
